The measurements presented in this section are drawn from patent US20080090770A1.

Molecular target: T1, GST-RIM2 (KIAA0751) PDZ domain 1 (human)
T1 construct: Construct RIM2, PDZ domain 1-pGEX-3X; vector sites BamH1/EcoR1, insert sites BglII/MfeI; also called GST-RIM2 PDZ domain; RIM3 (as printed once)
T1 sequence (chain, as listed by the source): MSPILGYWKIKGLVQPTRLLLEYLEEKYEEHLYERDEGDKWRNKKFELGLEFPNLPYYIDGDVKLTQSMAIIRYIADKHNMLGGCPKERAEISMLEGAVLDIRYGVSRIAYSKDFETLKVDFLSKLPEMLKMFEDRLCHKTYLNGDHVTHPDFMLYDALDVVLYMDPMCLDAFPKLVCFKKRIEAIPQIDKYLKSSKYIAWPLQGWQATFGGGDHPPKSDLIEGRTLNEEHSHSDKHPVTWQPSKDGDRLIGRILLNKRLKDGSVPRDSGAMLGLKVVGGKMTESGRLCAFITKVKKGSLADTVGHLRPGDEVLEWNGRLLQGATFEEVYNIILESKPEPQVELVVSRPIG
Assay: modified ELISA, plated GST-RIM2 PDZ domain, biotinylated peptide 0.001-10 µM, curve fit; Relative EC50
pEC50: −log10 of the molar value. Where no end group is shown, it is not given here.
value_type: pEC50

I'm hoping you can list pEC50 for every binder here, please.
1. YGRKKRRQRRRARSDRTIWA (also: biotinylated, position not given here, TAT plus 9 residues; also called AVC#1829) [YGRKKRRQRRRARSDRTIWA (SEQ ID NO: 145)]
2. YGRKKRRQRRRARSDRGIWA (also: biotinylated, position not given here, TAT plus 9 residues; also called AVC#1823) [YGRKKRRQRRRARSDRGIWA (SEQ ID NO: 142)]
3. YGRKKRRQRRRARGDVRLML (also: biotinylated, position not given here, TAT plus 9 residues; also called AVC#1840) [YGRKKRRQRRRARGDVRLML (SEQ ID NO: 156)]

["> 8.00", "> 8.00", "~7.52"]
